- System: UO-31
- assay.protocol: NCI tumour cell line growth inhibition, 48 h
Active and inactive are the calls of the source. Cut-off read from the data, not from the text of the source: active = GI50 up to about 1.1 µM and inactive = higher.
Please reply with one of these outcomes: true = active, false = inactive

compound | qualitative.label
CC1CC(C)(C)CC(OCCN2CCCCC2)(c2ccccc2)C1 (configuration not stated) | false
O=C1OC(c2ccccc2)=N/C1=C\c1cn[nH]n1 | false
COC(=O)Cc1cc(=O)n2c([nH]c3ccccc32)c1C#N | false

Hi team, can someone confirm the assay call for O=C1CC(c2ccccc2Cl)Oc2ccccc21 (configuration not stated) ?
false

For CC1=NN(C(=O)c2ccc(Cl)cc2)C(=O)/C1=C/c1cccc([N+](=O)[O-])c1 , what call appears in the results of this test?
false

Can you look up the reported call for CC(=O)OCc1c2ccccc2c(C)c2c1cc(F)c1ccccc12 for me?
false

Could you kindly confirm the outcome this assay logged for N#Cc1c2c(c(Cl)n3c1nc1ccccc13)CCCC2 ?
false

Can you look up the reported call for Oc1ccc(O)c(CNc2ccccc2)c1 for me?
false

What did the test return for C/C=C/c1cc(=O)c([C@@H]2OC(=O)c3cc(OC)cc(OC)c32)co1 ?
false

Query: recorded result category for CSc1nc(-c2cc3c(c(SC)n2)CCCCC3)cc2c1CCCCC2 in this test
false

Tell me the assay call for CCNCCCNc1c2ccccc2nc2ccccc12 please.
true

Tell me the recorded outcome of this test for CN(C)C(=O)O/N=C1/C(=C2/C(=O)Nc3ccccc32)Nc2ccccc21 .
false
